Source listed as the supplement of paper PMC9135407.

# System: primary human hepatic stellate cells (donor 1)
# method: scaled lipid accumulation score (0 = DMSO-like, 1 = nortriptyline-like); higher = stronger HSC inactivation (lipid re-accumulation), active = hit call of the paper
# stated conditions: library stock concentration: 4.5 mM; 48 h
Counter-ions that a name gives are not always drawn. The whole screen tested about 5,800 compounds, of which about 620 (11%) showed activity. This excerpt belongs to a sample that is enriched for actives.
recorded metric: scaled lipid accumulation score

* CC(CN(C)C)CN1c2ccccc2Sc2ccccc21.O=C(O)C(O)C(O)C(=O)O (centres undefined) [Trimeprazine tartrate] | 0.915 (active)
* CC(=O)c1ccc2c(c1)N(CCCN(C)C)c1ccccc1S2 [Acepromazine maleate] | 0.524 (inactive)
* CC(=O)OCC1=C(C(=O)O)N2C(=O)[C@@H](NC(=O)CSc3ccncc3)[C@H]2SC1 [Cephapirin sodium] | ≤ -0.001 (inactive)
* CN1CCN(CC/C=C2\c3ccccc3Sc3ccc(S(=O)(=O)N(C)C)cc32)CC1 [Thiothixene] | 0.856 (active)

----------
# Test system: primary human hepatic stellate cells (donor 1)
# method: scaled lipid accumulation score (0 = DMSO-like, 1 = nortriptyline-like); higher = stronger HSC inactivation (lipid re-accumulation), active = hit call of the paper
# stated conditions: library stock concentration: 3.33 mM; 48 h
Structures can show the parent of a compound that is named as a salt. Screen size: about 5,800 compounds; about 620 (11%) showed activity. The sample holds actives, similar compounds and a random draw of the others, so the mix is not that of the screen.
# key: entry, value: scaled lipid accumulation score
recorded metric: scaled lipid accumulation score

- C=CC(=O)Nc1cccc(Nc2nc(Nc3ccc(OCCOC)cc3)ncc2F)c1: ≤ -0.009 (inactive)
- COC(=O)C1=CO[C@@H](O)[C@@H]2C(CO)=CC[C@H]12: ≤ 0 (inactive)
- CCS(=O)(=O)Nc1ccc2[nH]c(O)c(C(=Nc3ccc(CN4CCCCC4)cc3)c3ccccc3)c2c1: ≤ 0 (inactive)
- CCc1cc2c(cc1CC)CC(NC[C@H](O)c1ccc(O)c3[nH]c(=O)ccc13)C2 [Indacaterol Maleate]: 0.494 (inactive)
- CC1=C(C(=O)OC(C)C)C(c2cccc([N+](=O)[O-])c2)C(C(=O)OC2CN(C(c3ccccc3)c3ccccc3)C2)=C(N)N1 (stereo unspecified): 0.061 (inactive)
- CCCOc1ccc(C(=O)OCCN(CC)CC)cc1N [Proparacaine HCl]: ≤ 0 (inactive)
- CC(C)NCC(O)COc1cccc2ccccc12 (stereo unspecified) [Propranolol HCl]: ≤ 0 (inactive)
- O=C1Nc2ccc(-c3cccnc3)cc2/C1=C/c1ccc[nH]1: ≤ 0 (inactive)
- CC(=O)[C@]1(O)Cc2c(O)c3c(c(O)c2[C@@H](O[C@H]2C[C@H](N)[C@H](O)[C@H](C)O2)C1)C(=O)c1ccccc1C3=O [Idarubicin HCl]: 0.288 (inactive)
- CCCCc1oc2ccccc2c1C(=O)c1cc(I)c(OCCN(CC)CC)c(I)c1 [Amiodarone HCl]: 0.394 (inactive)
- NC(=O)c1ccc2nc(-c3ccc(Oc4ccc(Cl)cc4)cc3)[nH]c2c1: ≤ 0 (inactive)
- COc1cc2c(cc1OC)-c1[nH]nc(Nc3cccc(F)c3)c1C2: 0.044 (inactive)
- CC(C)C[C@H](NP(=O)(O)O[C@@H]1O[C@@H](C)[C@H](O)[C@@H](O)[C@H]1O)C(=O)N[C@@H](Cc1c[nH]c2ccccc12)C(=O)O [Phosphoramidon Disodium Salt]: ≤ -0.009 (inactive)
- Oc1ccc(OC2CCCCO2)cc1 (stereo unspecified): ≤ 0 (inactive)
- Nc1ncnc2c1C(=O)N(c1ccc([C@H]3CC[C@H](CC(=O)O)CC3)cc1)CCO2: ≤ -0.009 (inactive)
- COc1cc2c(cc1Cc1cccc(Cl)c1F)c(=O)c(C(=O)O)cn2[C@H](CO)C(C)C: ≤ 0 (inactive)
